ASSAYED_TARGET: human muscarinic M1 receptor (Homo sapiens, UniProt P11229)
PROCEDURE_SUMMARY: Alphascreen Surefire phospho-ERK1/2 assay, M1
Format: cell-based
RECORDED_CONDITIONS: CHO cells stably expressing human M1; agonist 5 min, 37° C.; read-out: pEC50 M1 (converted)
REPORTED_PROPERTY: EC50 (nM)

1. CCOC(=O)N1CCC2(CC(N3CCC(N4CC(F)(F)C4)CC3)C2)C1 (single isomer, unassigned) :: 1000

P: CCOC(=O)N1CCC2(CC(N3CCC(N4C(=O)C[C@H]4CC)CC3)C2)C1 (single isomer, unassigned)
Q: CCOC(=O)N1CCC2(CC(N3CCC(N4C(=O)C[C@@H]4CC)CC3)C2)C1 (single isomer, unassigned)
Data request: Between these two entries, P and Q , state which has the higher EC50. Write the label of whichever entry you select.
Data returned: P
(P: 794 nM, Q: 316 nM)

###

ASSAYED_TARGET: human muscarinic M4 receptor (Homo sapiens)
Construct: expressed in transfected cells
Sequence (P08173 whole entry): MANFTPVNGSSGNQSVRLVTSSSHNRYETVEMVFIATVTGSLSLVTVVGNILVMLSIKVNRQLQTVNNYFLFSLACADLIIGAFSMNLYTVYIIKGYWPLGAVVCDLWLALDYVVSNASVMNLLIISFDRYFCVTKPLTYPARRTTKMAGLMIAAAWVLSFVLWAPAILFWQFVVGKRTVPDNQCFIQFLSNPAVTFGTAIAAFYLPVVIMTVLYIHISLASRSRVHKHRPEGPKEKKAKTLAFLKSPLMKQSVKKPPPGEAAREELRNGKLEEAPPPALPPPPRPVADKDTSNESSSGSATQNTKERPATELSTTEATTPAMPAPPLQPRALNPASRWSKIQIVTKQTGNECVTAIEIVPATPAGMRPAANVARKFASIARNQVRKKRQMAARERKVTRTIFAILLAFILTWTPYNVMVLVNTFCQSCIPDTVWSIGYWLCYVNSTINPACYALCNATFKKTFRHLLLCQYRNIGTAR
PROCEDURE_SUMMARY: Alphascreen Surefire phospho-ERK1/2 assay, M4
Assay type: cell-based
RECORDED_CONDITIONS: CHO, read-out: % Emax cf. ACh, M4
REPORTED_PROPERTY: Emax (%)

1. CCOC(=O)N1CCC2(CC(N3CCC(N4C(=O)C[C@H]4CC)CC3)C2)C1 (single isomer, unassigned) [Example 1-7] :: 101

A: CCOC(=O)N1CCC2(CC(N3CCC(N4C(=O)C[C@@H]4C)CC3)C2)C1 (single isomer, unassigned) [Example 1-4]
B: CCOC(=O)N1CCC2(CC(N3CCC(N4C(=O)C[C@H]4C)CC3)C2)C1 (single isomer, unassigned) [Example 1-6]
Data request: Which numeric Emax is bigger, that of A or that of B ? Response format: the label of the selected entry.
Data returned: B
(B: 74%, A: 41%)

###

ASSAYED_TARGET: UniProtKB P11229
Sequence (P11229 1-460): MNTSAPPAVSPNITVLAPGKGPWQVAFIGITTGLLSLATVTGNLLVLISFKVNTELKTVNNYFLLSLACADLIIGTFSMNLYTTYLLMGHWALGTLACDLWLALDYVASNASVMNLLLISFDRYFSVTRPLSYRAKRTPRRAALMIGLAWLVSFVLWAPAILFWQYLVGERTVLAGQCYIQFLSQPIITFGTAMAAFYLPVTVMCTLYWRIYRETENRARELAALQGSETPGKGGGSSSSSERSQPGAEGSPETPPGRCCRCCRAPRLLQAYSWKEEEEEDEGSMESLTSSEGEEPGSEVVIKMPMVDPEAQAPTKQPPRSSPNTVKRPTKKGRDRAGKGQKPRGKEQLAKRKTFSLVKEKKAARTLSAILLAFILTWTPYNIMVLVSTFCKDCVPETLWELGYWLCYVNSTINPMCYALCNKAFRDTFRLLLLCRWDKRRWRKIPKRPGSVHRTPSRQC
PROCEDURE_SUMMARY: Alphascreen Surefire phospho-ERK1/2 assay, M1
Format: cell-based
RECORDED_CONDITIONS: CHO, read-out: % Emax cf. ACh, M1
Method: ERK1/2 phosphorylation is a downstream consequence of both Gq/11 and Gi/o protein coupled receptor activation, making it highly suitable for the assessment of M1, M3 (Gq/11 coupled) and M2, M4 receptors (Gi/o coupled), rather than using different assay formats for different receptor subtypes. […] Plates were incubated for 2 h with gentle agitation in the dark and then read on a PHERAstar plate reader. pEC50 and Emax figures were calculated from the resulting data for each receptor subtype.
REPORTED_PROPERTY: Emax (%)

1. CCOC(=O)N1CCC2(CC(N3CCC(N4CC(F)(F)C4)CC3)C2)C1 (single isomer, unassigned) :: 24

A: CCOC(=O)N1CCC2(CC(N3CCC(N4CCC4=O)CC3)C2)C1 (single isomer, unassigned)
B: CCOC(=O)N1CCC2(CC(N3CCC(N4C(=O)C[C@@H]4CC)CC3)C2)C1 (single isomer, unassigned)
C: CCOC(=O)N1CCC2(CC(N3CCC(N4CC[C@@H]4C(=O)OC)CC3)C2)C1 (single isomer, unassigned)
Data request: Form: Sort by [Emax] Order [ ascending ] Your reply should list the labels following the order given in the request.
Data returned: A, C, B

Value source: patent US12024499B2
